- system: FAK enzyme (6 His tagged kinase domain, GenBank NP—722560) (Homo sapiens)
- Construct: 6 His; made in house; host or cells: insect cell culture infected with baculovirus
- Sequence (Q05397 422-680 limits assumed): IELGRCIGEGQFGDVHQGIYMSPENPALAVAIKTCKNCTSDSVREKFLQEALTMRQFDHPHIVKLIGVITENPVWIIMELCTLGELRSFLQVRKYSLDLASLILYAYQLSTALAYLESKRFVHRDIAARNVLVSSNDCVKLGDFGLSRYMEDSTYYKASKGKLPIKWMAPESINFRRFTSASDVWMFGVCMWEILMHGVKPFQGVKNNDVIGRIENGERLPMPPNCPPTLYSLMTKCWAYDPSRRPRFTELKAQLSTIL
- measurement description: In vitro enzyme assay (a): sandwich ELISA of FAK tyrosine kinase activity on polyGAT peptide, TMB colorimetric endpoint
- Assay type: biochemical
- assay setup: in vitro Enzyme Assay test (a); ATP at Km; geometric mean of n > 1 measurements, values marked * tested once
- Text: (a) In Vitro Enzyme Assay A sandwich ELISA assay with a 3,3′,5,5′-tetramethyl benzidine (TMB) colorimetric endpoint was used in order to determine the level of effect of selected compounds on inhibition of FAK protein tyrosine kinase enzyme activity. […]
Form field: pIC50 (one value per entry).
Schema: pIC50 number; meaning minus log10 of the concentration expressed in molar units.

CON(C)C(=O)c1ccccc1Nc1cc(Nc2cn(C)nc2C)ncc1Cl
6.49
COCCNC(=O)Cn1cc(Nc2cc(Nc3cccc4c3C(=O)N(C)CC4)c(F)cn2)cn1
6.35
CN1CCc2cccc(Nc3cc(Nc4cnn(C)c4)ncc3Cl)c2C1=O
7.39
COc1cc(Nc2cc(Nc3cccc4c3C(=O)N(C)CC4)c(C#N)cn2)n(C)n1
7.70
CN1CCc2cccc(Nc3cc(Nc4cnn(C5CCNCC5)c4)ncc3F)c2C1=O
6.72

Challenge: For FAK enzyme (6 His tagged kinase domain, GenBank NP—722560) (Homo sapiens), provide pIC50 of "CN1CCc2cccc(Nc3cc(Nc4cn(C)nc4C#N)ncc3Cl)c2C1=O" please.
Response given: 7.70

Challenge: Same for "CNC(=O)c1ccc(C)cc1Nc1cc(Nc2cn(C)nc2C)ncc1C(F)(F)F"
Response given: 7.89

Challenge: How about this compound: "CNC(=O)c1ccccc1Nc1cc(Nc2cc(C)n(C)n2)ncc1Cl"
Response given: 7.35

---

Reported values: IC50 for FAK enzyme (6 His tagged kinase domain, GenBank NP—722560) (Homo sapiens), one per item.
Please give a number only; it is taken to be in nM.

# count of solved cases: 3
CN1CCc2cccc(Nc3cc(Nc4cnn(C5CCCNC5)c4)ncc3Cl)c2C1=O (stereo not shown) [Example 3.34]
160
CN(C)C(=O)c1nn(C)cc1Nc1cc(Nc2cccc3c2C(=O)N(C)CC3)c(Cl)cn1 [Example 12.02]
1360
CNC(=O)c1ccccc1Nc1cc(Nc2cn(C)nc2C)ncc1F [Example 4.10]
1770

Could you now look at the following molecule, please?
Challenge: Which value of IC50 has been reported for CN1CCc2cccc(Nc3cc(Nc4cnn(C)c4)ncc3C#N)c2C1=O [Example 1.04] in the records?
Response given: 14

---

- system: FAK enzyme (6 His tagged kinase domain, GenBank NP—722560) (Homo sapiens)
IC50: recorded values
The reply should be a number in nM, with the unit left off.

Some solved entries appear below for comparison.
CC(=O)N1CCC(n2cc(Nc3cc(Nc4cccc5c4C(=O)N(C)CC5)c(Cl)cn3)cn2)CC1 [Example 3.31]
171
CNC(=O)c1ccccc1Nc1cc(Nc2cnn(C3CCN(C)CC3)c2)ncc1Cl [Example 3.12]
195
CNC(=O)c1ccccc1Nc1cc(Nc2cn(C(C)C)nc2C)ncc1C(F)(F)F [Example 13.02]
21
CONC(=O)c1cc(F)ccc1Nc1cc(Nc2cn(C)nc2C)ncc1C(F)(F)F [Example 16.02]
6
CNC(=O)c1ccccc1Nc1cc(Nc2cnn(CC(=O)N3CCOCC3)c2)ncc1Cl [Example 3.05]
90
CNC(=O)c1ccccc1Nc1cc(Nc2cnn(C3CCN(C(C)=O)CC3)c2)ncc1Cl [Example 3.13]
128
CNC(=O)c1cc(Cl)ccc1Nc1cc(Nc2cn(C)nc2C)ncc1C(F)(F)F [Example 10.07]
14
CNC(=O)c1ccccc1Nc1cc(Nc2cn(C)nc2C)ncc1Cl [Example 3.14]
45

Now let's try a different one.
Challenge: Form field: reported IC50 of CNC(=O)c1ccccc1Nc1cc(Nc2cn(C)cn2)ncc1Cl [Example 3.18]
Response given: 275
